Where these numbers come from: the supplement of paper PMC9732359

experiment: protein stability index of a GFP-peptide fusion (yeast GPS) (PSI 1-4); higher = more stable; sorted into four equal gates, so the index is relative within each strain; conditions: pdr5∆
value-type: protein stability index
Write the value as a bare number.

Example entries begin here.
chain-sequence	protein stability index
ILSSVNRTVLLKIFKIF [SRB8]	1.42
RNMAEEFEYDDEPDEQG [CYT1]	3.17
EELLQLFLNNFVSRIPI [IRR1]	2.74
VHVQLLINLKISPLMKS [SRB8]	1.59
VPRAALEERFDPKSPTK [YMR129W/POM152]	3.09

Look up protein stability index for this sequence: LVTCEGSEEKAFVPKKR [SRP54]
1.85

And for DSSTTSSNSQQSTPQPD [ITC1] ?
2.85

And for HILFQNNPDMMIQPPQQ [ROX3] ?
2.96

And for APIPKQLLQRIPNIPPN [GAL11] ?
2.63

And for RKFALEKLYIFYKLNMP [SRP72] ?
1.79

And for LFEQLQTVSNKEDAKAT [SRP54] ?
3.04

And for LKRADYTAVDTAKLQMR [RPN14] ?
3.33

And for HVIQIPLNKPLLTEELA [TAF14] ?
2.39

And for ALSLHREILCYSKDAKE [FAS2] ?
1.76

---

Recorded protein stability index, one value per entry.
assay: protein stability index of a GFP-peptide fusion (yeast GPS) (PSI 1-4); higher = more stable; sorted into four equal gates, so the index is relative within each strain; conditions: ubr1∆
Write the value as a bare number.

Example entries begin here.
chain-sequence	protein stability index
DYRPAEETEAQAEPVEA [RPS3]	3.17
ILLAGRFRGKRVVYLKH [RPL6A]	2.12
VLPLGSVPEGTIVSNVE [RPL2A]	3.12
GVIALGQFVTLGCTLVT [RMP1]	1.5
VVFTRLVQRCWQWGNDR [CSN12]	1.52
PYPGSPMHSIMPNSSLQ [DSN1]	2.83
DDELMNWRRLSGRNIHL [SSN2]	3.19

Alright, here's another sequence for you.
Look up protein stability index for this sequence: KIKAILESVGIEIEDEK [RPP2A]
2.99

---

experiment: protein stability index of a GFP-peptide fusion (yeast GPS) (PSI 1-4); higher = more stable; sorted into four equal gates, so the index is relative within each strain; conditions: doa10∆
Recorded protein stability index, one value per entry.
Write the value as a bare number.

Example entries begin here.
chain-sequence	protein stability index
AKVNRPAKIVNFEKPKN [RPN5]	2.93
EARFWHLVELLLVFRNA [YDL116W/NUP84]	2.69
EKGSWEQLSPQDVLQML [BRR2]	3.05
YPLLIRMSYGSHDKKTK [SRP14]	2.61

Alright, here's another sequence for you.
Look up protein stability index for this sequence: NYNDLIVNYEDLATTQA [BRN1]
2.98

---

experiment: protein stability index of a GFP-peptide fusion (yeast GPS) (PSI 1-4); higher = more stable; sorted into four equal gates, so the index is relative within each strain; details: pdr5∆
Param threshold (3) applies to protein stability index; output TRUE when value >= threshold, FALSE when value < threshold.

Look over these answered cases.
chain-sequence	label
PQMQCALQNLSQLPITP [YGL172W/NUP49]	FALSE
LSVVKYLLASLKDSKDF [RPN9]	FALSE
VKDELMFSPLVDSGSND [RPO21]	TRUE

Does GEEDADEEETAEGQTNS [RPN1] have a reported protein stability index of at least 3?
TRUE

And for GGSNYMSNLPFGLGYGD [RPC31] ?
TRUE

And for GAELRSVCTEAGMFAIR [RPT1] ?
TRUE

And for FGHLKLALPVFHIGYFK [RPO31] ?
FALSE

And for RKLFPNWIKPSDSEIPP [PRP8] ?
FALSE

And for YQVDEDVKSSLSKVFSD [YJL039C/NUP192] ?
TRUE

And for AQGDPNLEPLIAKLVAV [NUT1] ?
FALSE

And for ERTKNAQFIVISLRNNM [SMC4] ?
FALSE

And for IINKVLDYQETYVEELF [YJL039C/NUP192] ?
FALSE

And for KSIINSQRPGARILARS [ITC1] ?
FALSE

And for DKLKDIVGQTSRTVTPA [ITC1] ?
TRUE

And for MKYVRETSGVTTALLKD [MED8] ?
TRUE

---

assay: protein stability index of a GFP-peptide fusion (yeast GPS) (PSI 1-4); higher = more stable; sorted into four equal gates, so the index is relative within each strain; details: pdr5∆
Param threshold (3) applies to protein stability index; output T when value >= threshold, F when value < threshold.

Look over these answered cases.
chain-sequence	label
AVAVVVDPIQSVKGKVV [RPN11]	F
RKANREEKLKANKEKKK [RPL24A]	F
TKAIQGCSKICDLSSKF [YCS4]	T
SGKLRDYQVQGLNWLIS [ISW2]	F
HPAYLFKGLETPLKARQ [YLR018C/POM34]	F
SIIQSKQDCVDWFTYSY [BRR2]	F
WGEQKKAMSSRAGVSQV [RPB2]	T
ETELPTLSLPDSQDYIL [SMC1]	T

Does EDEFIVQHDQILVMETS [SWP82] have a reported protein stability index of at least 3?
F

And for AKGLVAYHQKYVDEQSK [RPS16A] ?
F

And for DDLADDDFEEDEDEEDD [RPC31] ?
T

And for FVSSLSNTSTLKNMLYV [BRR2] ?
F

And for VNEIMYKCTAAMEKYLL [MTW1] ?
F

And for YHGLYTNYEMSYWQKSY [LIN1] ?
F

And for LYQIDYLGTKVELPYGA [PRE1] ?
F

And for KYNAFIASEVLIKQVPR [RPL1A] ?
F

And for KKCIDFFEMLISKSLTF [RRI2] ?
F

And for TQLKKRAVSGVELRIYV [POP7] ?
F

And for VLSALEGKSVDELITEG [RPP2A] ?
T

And for QKRNAHGYFLQDKEKID [ITC1] ?
T

---

Recorded protein stability index, one value per entry.
assay: protein stability index of a GFP-peptide fusion (yeast GPS) (PSI 1-4); higher = more stable; sorted into four equal gates, so the index is relative within each strain; settings: ubr1∆
Write the value as a bare number.

Example entries begin here.
chain-sequence	protein stability index
KSIINSQRPGARILARS [ITC1]	2.63
LMRQGVLGIKVKIMRDP [RPS3]	2.74
TQLKKRAVSGVELRIYV [POP7]	2.78
EARFWHLVELLLVFRNA [YDL116W/NUP84]	2.02

Look up protein stability index for this sequence: FIENFLTNDTFEKKLSI [YML103C/NUP188]
3

And for NMMEHWDYLQLTVAMYI [RPO31] ?
1.85

And for IINPHAIPSRMTVAHLI [RPB2] ?
2.1

And for FLSSFDDVLQTIITDCA [YJL039C/NUP192] ?
2.38

And for PTMYTRLCICSGMLFEM [SIN4] ?
1.44

And for YYNEISRDLDISSSTQC [POP6] ?
2.3

And for KMIEKIEKMSTIVQLCK [YIL149C/MLP2] ?
2.36

And for IYLSRFLIKASVREINL [SSN8] ?
1.25

And for GSGKSNMMDAISFVLGV [SMC1] ?
3.32

And for QKRIENGGNSVITLAEY [SRP68] ?
3.22

And for TMTMDVFNDAHVLNKVT [RPN1] ?
2.25

And for PVVINLDAKNKVFVPPK [RPO31] ?
2.95

And for SLDAREANFDLINIDTS [RPC40] ?
3.04

And for EGSTIRYLAVTLQDIGF [YMR129W/POM152] ?
2.71

And for DGTAQLSNNKTDEEEQL [YJR042W/NUP85] ?
3.18

And for DSLNDDLNKENKLLRRK [YIL149C/MLP2] ?
3.31

And for TDAHTPLARNYIKSMDL [RPR2] ?
2.86

And for STIDANFADKYDEVKKH [RPL8A] ?
2.93

And for ANLPWLGKAQNWAKFTA [RPN2] ?
3.52

And for EGHDWKAPTKLDDPEAV [DIS3] ?
3.25

And for VTEMSNNANVLGGEIND [BRR2] ?
3.15

And for TPEKDLFIGLFTRPLFV [YCS4] ?
1.45

---

experiment: protein stability index of a GFP-peptide fusion (yeast GPS) (PSI 1-4); higher = more stable; sorted into four equal gates, so the index is relative within each strain; settings: pdr5∆
Param threshold (3) applies to protein stability index; output Met when value >= threshold, Not met when value < threshold.

Look over these answered cases.
chain-sequence	label
IMERIKSSLSLRDHALS [ITC1]	Not met
NENETRDKVCKQINEAR [PGD1]	Met
TCVSMAPIQLKIDLLSG [RGR1]	Not met
VARTFWASKYGQEYPRI [BRR2]	Not met

Does QEQYQTNTFEGSGNNNE [SNU114] have a reported protein stability index of at least 3?
Met

And for EAMYKLQLASLQQKQRD [SMC3] ?
Not met

And for SESKDSDKPSLPSAVDG [YLR335W/NUP2] ?
Met
